- Test system: Glutamate receptor ionotropic, NMDA 3A (GRIN3A) ligand-binding domain
- measurement_protocol: binders of NR3A ligand-binding domain, primary screen, biophysical, differential scanning fluorimetry, uHTS (AID 1259313)
- measurement_parameters: NR3A LBD differential scanning fluorimetry, at 25 µM, 0% = protein alone, 100% = glycine-bound protein
Screen size: about 340,000 compounds; about 8,500 (2.5%) were called active.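 How the source made its calls: active means melting temperature shift of at least 10% of the positive control shift, at one fixed dose; inactive means the rest.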 What follows is part of a selection rich in actives, with near analogues and random picks from the rest.
Hello, when you answer, please use one of the following outcomes: active, inactive

Task item: Hi, do you know how "O=C(CSc1nc(Nc2ccccc2)nc(N2CCOCC2)n1)Nc1cc(Cl)ccc1O" came out in this test?
Reply: active

Task item: In this assay, the call recorded for "COc1cc(/C=C2/C(=O)ON=C2C)ccc1OCc1cccc(F)c1" was what?
Reply: inactive

Task item: Look up the recorded call for "CCN(CC)CCNCc1ccc(OCc2ccc(Cl)nc2)c(OC)c1" in this test.
Reply: inactive

Task item: Hi team, can someone confirm the assay call for "NC(=O)Cn1cc(/C=N\NS(=O)(=O)c2ccccc2)c2ccccc21" ?
Reply: inactive

Task item: Hi, sorry to bother you, what did the test record for "COc1ccccc1NC(=O)CN(c1ccccc1OC)S(=O)(=O)c1ccccc1" ?
Reply: inactive

Task item: I'd appreciate the recorded outcome for "CCOc1cc(C=NNC(=O)CCCC(=O)NN=Cc2ccc(O)c(OCC)c2)ccc1O" from this test.
Reply: inactive

Task item: How was "COc1ccccc1N(CC(=O)N1CCCCC1)S(=O)(=O)c1ccccc1" classified in this test?
Reply: inactive

Task item: For "COc1ccc(Br)cc1/C=N/NC(=O)c1cccc(S(=O)(=O)N2CCOCC2)c1" , what call appears in the results of this test?
Reply: inactive

Task item: Per the records of this test, what outcome belongs to "COc1cc(/C=C2\SC(=O)NC2=O)ccc1OCc1ccc(Cl)nc1" ?
Reply: active

Task item: Which outcome was entered for the compound "COc1ccc(-c2csc3ncnc(N4CCN(S(=O)(=O)c5cccc(F)c5)CC4)c23)cc1" in this test?
Reply: inactive

Task item: Test call, this compound: "Cn1c(=O)c2ccccc2n(CC(=O)Nc2ccc3c(c2)OCCO3)c1=O"
Reply: inactive
